B1: Osa-1-4 twister ribozyme (parent)
chain: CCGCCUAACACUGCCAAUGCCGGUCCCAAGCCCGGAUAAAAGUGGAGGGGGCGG

Variants of: B1
Test: self-cleavage, relative activity (ratio to wild type); higher = more cleavage; co-transcriptional
The following variants are shown together with reported self-cleavage values.

PRIMARY_SEQUENCE	self-cleavage
CCGCCUAACACUGCCAAUGCCGGUCCCAAGCCCGGAUAAAAUUGGAGGGCGCGG [G42U G50C]	0.1
CCGCCUAACACUGCCAAUGCGGGUCCCAAGCCCGGAUAAAAGUGGAGGGUGCGG [C21G G50U]	0.1
CCGCCUAACACUGCCAAUGUCGGUCCCAAGCCCGGAUAAAAGUGGAGUGGGCGG [C20U G48U]	0.1
CCGCCUAACACAGCCAAUGCCGGUCCCAAGCCCCGAUAAAAGUGGAGGGGGCGG [G34C U12A]	0.1
CCGCCUAACACUGCCCAUGCCGGUGCCAAGCCCGGAUAAAAGUGGAGGGGGCGG [A16C C25G]	0.1
